Hi there, I'd appreciate the recorded IC50 for every entry that follows.
Test system: SUDHL10
Test: Induction of cytotoxicity (CellTiter-Glo, 5 h), SUDHL10
Conditions: Homo sapiens, SU-DHL10, 5 h, read-out: Cytotox SUDHL10 [M] (median), SUDHL10 cells, cytotoxicity induction, CellTiter-Glo, 5 h, median
Answers are plain numbers, in M.

CCc1c2c(nn1C)COCCCCn1c(C(=O)O)c(CCCOc3cccc4c3CCCC4)c3cccc-2c31 (racemic) | 1.19e-05
Cc1c2c(nn1C)COCCCCn1c(C(=O)O)c(CCCOc3cccc4cc(C(F)(F)F)ccc34)c3cccc-2c31 (single isomer, unassigned; enantiomer 1) [Example 311] | 1.49e-05
COc1ccc(OCc2nn(C)c3c2-c2cccc4c(CCCOc5cccc6ccccc56)c(C(=O)O)n(c24)CCCCOC3)cc1 (single isomer, unassigned; enantiomer 1) [Example 320] | 2.29e-05
CCc1nn(C)c2c1-c1cccc3c(CCCOc4cccc5c(F)cccc45)c(C(=O)O)n(c13)CCCCOC2 (racemic) [Example 298] | 2.27e-05
CN1CCCn2c(C(=O)O)c(CCCOc3cccc4ccccc34)c3cccc(c32)-c2c(nn3c2CCCC3)C1 (racemic) | 1.84e-05

Now examine the next entry.
IN: Recall and state the measured IC50 for CCc1nn(C)c2c1-c1cccc3c(CCCOc4cccc5cc(F)ccc45)c(C(=O)O)n(c13)CCCCOC2 (racemic) .
OUT: 1.58e-05
